Hello, the source for this data is the NIST ThermoML archive (doi:10.1021/je100042c), in case you need it.

Conditions: 348.15 K; 101.33 kPa; Liquid; Vibrating tube method
observedProperty: mass density (kg/m3)

CCCCCCCCCCCCCCCC(=O)OCC [ethyl hexadecanoate]: 819.5
CCCCCCCC(=O)OC [methyl octanoate]: 828.5
CCCCCCCCCCCC(=O)OC [methyl dodecanoate]: 826.2
CCCCCCCCCCCC(=O)OCC [ethyl dodecanoate]: 819.4
CCCCCCCCCCCCCCCCCC(=O)OC [methyl octadecanoate]: 824.5
CCCCCCCCCCCCCC(=O)OCC [ethyl tetradecanoate]: 819.4
CCCCC/C=C\C/C=C\CCCCCCCC(=O)OC [methyl (Z,Z)-9,12-octadecadienate]: 846.1
CCCCCCCCCCCCCCCC(=O)OC [methyl hexadecanoate]: 824.7
CCCCCCCCCCCCCCCCCC(=O)OCC [ethyl octadecanoate]: 819.5
CCCCCCCCCC(=O)OC [methyl decanoate]: 827
CCCCCCCCCC(=O)OCC [ethyl decanoate]: 819.2
CCCCCCCCCCCCCC(=O)OC [methyl tetradecanoate]: 825.5
CCCCCCCC/C=C\CCCCCCCC(=O)OCC [ethyl (Z)-9-octadeceneoate]: 829.5
CCCCCCCC/C=C\CCCCCCCC(=O)OC [methyl cis-9-octadecenoate]: 834.3

###

Conditions: 358.15 K; 101.33 kPa; Liquid; Vibrating tube method
observedProperty: mass density (kg/m3)

CCCCCCCCCCCCCCCC(=O)OC [methyl hexadecanoate]: 817.3
CCCCCCCCCCCCCCCCCC(=O)OCC [ethyl octadecanoate]: 812.3
CCCCCCCCCCCCCCCC(=O)OCC [ethyl hexadecanoate]: 812.2
CCCCC/C=C\C/C=C\CCCCCCCC(=O)OC [methyl (Z,Z)-9,12-octadecadienate]: 838.7
CCCCCCCCCC(=O)OC [methyl decanoate]: 818.7
CCCCCCCC/C=C\CCCCCCCC(=O)OCC [ethyl (Z)-9-octadeceneoate]: 822.3
CCCCCCCCCCCCCCCCCC(=O)OC [methyl octadecanoate]: 817.3

###

Conditions: 318.15 K; 101.33 kPa; Liquid; Concentric cylinders viscometry
observedProperty: viscosity (mPa·s)

Example entries and their recorded answers appear below.
CCCCCCCCCCCCCCCCCC(=O)OC [methyl octadecanoate]: 4.435
CCCCCCCC/C=C\CCCCCCCC(=O)OCC [ethyl (Z)-9-octadeceneoate]: 3.641

a = CCCCCCCCCCCCCC(=O)OCC [ethyl tetradecanoate]
b = CCCCCCCCCCCCCCCCCC(=O)OCC [ethyl octadecanoate]
c = CCCCCCCCCCCC(=O)OC [methyl dodecanoate]
Task: Sort ascending by viscosity. To answer, write out the labels according to the requested order.
Result: c, a, b

###

Settings: 323.15 K; 101.33 kPa; Liquid; Vibrating tube method
observedProperty: mass density (kg/m3)

CCCCCCCCCCCCCCCCCC(=O)OCC [ethyl octadecanoate]: 837.5
CCCCCCCCCCCCCCCC(=O)OCC [ethyl hexadecanoate]: 837.9
CCCCCCCCCC(=O)OC [methyl decanoate]: 847.8
CCCCCCCCCC(=O)OCC [ethyl decanoate]: 839.8

###

Conditions: 343.15 K; 101.33 kPa; Liquid; Concentric cylinders viscometry
observedProperty: viscosity (mPa·s)

CCCCCCCCCC(=O)OCC [ethyl decanoate]: 1.017
CCCCCCCC(=O)OC [methyl octanoate]: 0.7101
CCCCCCCCCCCCCCCC(=O)OC [methyl hexadecanoate]: 2.107
CCCCCCCCCCCC(=O)OC [methyl dodecanoate]: 1.265
CCCCCCCC/C=C\CCCCCCCC(=O)OCC [ethyl (Z)-9-octadeceneoate]: 2.301

a = CCCCC/C=C\C/C=C\CCCCCCCC(=O)OC [methyl (Z,Z)-9,12-octadecadienate]
b = CCCCCCCCCC(=O)OC [methyl decanoate]
Task: # min-compare on viscosity between a and b Answer format: the label of the selected item.
Result: b

P = CCCCCCCCCCCCCC(=O)OCC [ethyl tetradecanoate]
Q = CCCCCCCCCCCCCCCCCC(=O)OC [methyl octadecanoate]
Task: Which is greater in viscosity, the first item P or the second item Q ? Answer format: the label of the selected item.
Result: Q

1 = CCCCCCCCCCCC(=O)OCC [ethyl dodecanoate]
2 = CCCCCCCCCCCCCCCC(=O)OCC [ethyl hexadecanoate]
Task: # min-compare on viscosity between 1 and 2 Answer format: the label of the selected item.
Result: 1
(1: 1.349 mPa·s, 2: 2.214 mPa·s)

###

Conditions: 323.15 K; 101.33 kPa; Liquid; Concentric cylinders viscometry
observedProperty: viscosity (mPa·s)

CCCCCCCC/C=C\CCCCCCCC(=O)OCC [ethyl (Z)-9-octadeceneoate]: 3.292

1 = CCCCCCCCCCCCCC(=O)OCC [ethyl tetradecanoate]
2 = CCCCCCCCCCCCCCCCCC(=O)OCC [ethyl octadecanoate]
3 = CCCCCCCC(=O)OC [methyl octanoate]
4 = CCCCCCCCCC(=O)OCC [ethyl decanoate]
Task: Sort ascending by viscosity. To answer, write out the labels according to the requested order.
Result: 3, 4, 1, 2
(3: 0.9093 mPa·s, 4: 1.36 mPa·s, 1: 2.458 mPa·s, 2: 4.057 mPa·s)

a = CCCCCCCCCCCCCCCCCC(=O)OC [methyl octadecanoate]
b = CCCCCCCCCCCC(=O)OCC [ethyl dodecanoate]
c = CCCCCCCCCC(=O)OC [methyl decanoate]
Task: Sort ascending by viscosity. To answer, write out the labels according to the requested order.
Result: c, b, a

1 = CCCCCCCC/C=C\CCCCCCCC(=O)OC [methyl cis-9-octadecenoate]
2 = CCCCCCCCCCCC(=O)OC [methyl dodecanoate]
Task: # min-compare on viscosity between 1 and 2 Answer format: the label of the selected item.
Result: 2

###

Conditions: 313.15 K; 101.33 kPa; Liquid; Vibrating tube method
observedProperty: mass density (kg/m3)

CCCCCCCCCCCCCCCCCC(=O)OC [methyl octadecanoate]: 849.8
CCCCCCCCCCCCCCCCCC(=O)OCC [ethyl octadecanoate]: 844.8
CCCCCCCCCCCC(=O)OC [methyl dodecanoate]: 853.9
CCCCCCCC/C=C\CCCCCCCC(=O)OCC [ethyl (Z)-9-octadeceneoate]: 854.9
CCCCCCCC(=O)OC [methyl octanoate]: 859.6
CCCCCCCCCC(=O)OCC [ethyl decanoate]: 848
CCCCCCCCCCCCCC(=O)OC [methyl tetradecanoate]: 852.2
CCCCCCCC/C=C\CCCCCCCC(=O)OC [methyl cis-9-octadecenoate]: 859.5
CCCCCCCCCC(=O)OC [methyl decanoate]: 856
CCCCC/C=C\C/C=C\CCCCCCCC(=O)OC [methyl (Z,Z)-9,12-octadecadienate]: 871.5
CCCCCCCCCCCCCCCC(=O)OCC [ethyl hexadecanoate]: 845.2
CCCCCCCCCCCCCCCC(=O)OC [methyl hexadecanoate]: 850.8
CCCCCCCCCCCCCC(=O)OCC [ethyl tetradecanoate]: 845.8
CCCCCCCCCCCC(=O)OCC [ethyl dodecanoate]: 846.8

###

Settings: 323.15 K; 101.33 kPa; Liquid; Concentric cylinders viscometry
observedProperty: viscosity (mPa·s)

CCCCC/C=C\C/C=C\CCCCCCCC(=O)OC [methyl (Z,Z)-9,12-octadecadienate]: 2.682
CCCCCCCCCCCCCCCC(=O)OCC [ethyl hexadecanoate]: 3.197
CCCCCCCCCCCCCCCC(=O)OC [methyl hexadecanoate]: 3.038

###

Conditions: 343.15 K; 101.33 kPa; Liquid; Concentric cylinders viscometry
observedProperty: viscosity (mPa·s)

CCCCCCCC/C=C\CCCCCCCC(=O)OC [methyl cis-9-octadecenoate]: 2.222

I = CCCCCCCCCCCCCC(=O)OC [methyl tetradecanoate]
II = CCCCCCCCCCCCCCCCCC(=O)OCC [ethyl octadecanoate]
Task: Which is greater in viscosity, the first item I or the second item II ? Answer format: the label of the selected item.
Result: II
(II: 2.744 mPa·s, I: 1.655 mPa·s)

###

Details: 293.15 K; 101.33 kPa; Liquid; Concentric cylinders viscometry
observedProperty: viscosity (mPa·s)

CCCCCCCCCCCCCC(=O)OCC [ethyl tetradecanoate]: 4.749
CCCCCCCCCC(=O)OCC [ethyl decanoate]: 2.326
CCCCC/C=C\C/C=C\CCCCCCCC(=O)OC [methyl (Z,Z)-9,12-octadecadienate]: 4.982
CCCCCCCCCCCC(=O)OCC [ethyl dodecanoate]: 3.38
CCCCCCCC/C=C\CCCCCCCC(=O)OCC [ethyl (Z)-9-octadeceneoate]: 6.591
CCCCCCCCCCCC(=O)OC [methyl dodecanoate]: 3.167
CCCCCCCC/C=C\CCCCCCCC(=O)OC [methyl cis-9-octadecenoate]: 6.45

a = CCCCCCCC(=O)OC [methyl octanoate]
b = CCCCCCCCCC(=O)OC [methyl decanoate]
Task: Which is greater in viscosity, the first item a or the second item b ? Answer format: the label of the selected item.
Result: b
